Parameter: pKi. Scope: all listed entries.
# subject of test: porcine cortical pα2 adrenergic receptor
# run description: Receptor binding assay, [3H]RX821002 competition, porcine cortical membranes
# assay conditions: means of 2-8 individual experiments each done as triplicate
pKi: −log10 of the molar value.
measured parameter: pKi

>>> result("CCCN(CCc1cccs1)[C@@H]1CCc2cccc(OC)c2C1")
7.19
>>> result("CCCN(CCc1ccccc1)C1CCc2cccc(OC)c2C1 (stereo not shown)")
7.22
>>> result("CCCN(CCc1cccs1)C1CCc2cccc(O)c2C1 (stereo not shown)")
7.17
>>> result("CCCN(CCc1cccs1)[C@@H]1CCc2cccc(O)c2C1")
7.25
